target: GPR6 (Homo sapiens, UniProt P46095); construct: expressed in transfected cells; host or cells: CHO cells; assay: GPR6 antagonist functional cAMP assay (LANCE Ultra cAMP TR-FRET, CHO cells stably expressing GPR6); assay type: cell-based; settings: CHO cells stably expressing GPR6, cAMP assay
Sequence (P46095 whole entry): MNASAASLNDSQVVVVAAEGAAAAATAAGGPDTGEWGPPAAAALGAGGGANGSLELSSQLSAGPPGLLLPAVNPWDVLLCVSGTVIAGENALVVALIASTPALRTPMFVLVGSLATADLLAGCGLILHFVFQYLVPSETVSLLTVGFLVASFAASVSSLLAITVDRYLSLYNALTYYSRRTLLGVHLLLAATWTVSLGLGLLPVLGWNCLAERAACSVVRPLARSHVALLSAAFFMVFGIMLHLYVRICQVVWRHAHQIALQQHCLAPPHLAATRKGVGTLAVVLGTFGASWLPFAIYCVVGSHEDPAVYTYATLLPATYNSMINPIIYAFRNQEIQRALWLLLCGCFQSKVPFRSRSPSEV
pIC50: −log10 of the molar value.
Entries and their pIC50

* CC(=O)N1CCc2nc(N3CCN(Cc4c[nH]cn4)CC3)c(-c3cnn(C)c3)nc2C1 | ≤ 4.52

Request: Data request, read-out pIC50, for CCc1cncc(-c2nc3c(nc2N2CCC(Oc4ccc(F)cc4F)CC2)CCN(C(C)=O)C3)n1
Response: 4.52 to 6.00

Request: Then this molecule: CC(C)(O)[C@@H](O)c1cc2nc(N3CCC(Oc4ccc(F)cc4F)CC3)c(-c3cnn(C4CC4)c3)nc2cn1 (single isomer, unassigned)
Response: 6.00 to 7.00

---

molecular target: GPR6 (Homo sapiens, UniProt P46095); construct: expressed in transfected cells; host or cells: CHO cells; test: GPR6 antagonist functional cAMP assay (LANCE Ultra cAMP TR-FRET, CHO cells stably expressing GPR6); format: cell-based; settings: procedure of Example 24
Result Type: IC50

* CC(C)(O)[C@@](C)(O)c1cc2nc(N3CCN(Cc4ccccc4F)CC3)c(-c3cnn(CF)c3)nc2cn1 (single isomer, unassigned) | 0.1 to 1 µM

Request: Data request, read-out IC50, for CCn1cc(-c2nc3c(nc2N2CCC(Oc4ccc(F)cc4F)CC2)CCN(C(=O)COC)C3)cn1
Response: < 0.1 µM

Request: Then this compound: CC(C)(O)C(O)c1cc2nc(-c3cnn(C(F)F)c3)c(N3CCC(=Cc4ccc(F)cc4F)CC3)nc2cn1 (single isomer, unassigned) [Compound 767]
Response: 0.1 to 1 µM

---

target: GPR6 (Homo sapiens, UniProt P46095); construct: expressed in transfected cells; host or cells: CHO cells; assay: GPR6 antagonist functional cAMP assay (LANCE Ultra cAMP TR-FRET, CHO cells stably expressing GPR6); format: cell-based; details: CHO cells stably expressing GPR6, cAMP assay (Example 24)
pIC50: −log10 of the molar value.
Result Type: pIC50

Reference set, count: 8
• CC(=O)N1CCc2nc(N3CCC(Oc4ccc(F)cc4F)CC3)c(-c3c[nH]c(C)n3)nc2C1 = 6.00 to 7.00
• CN(C)C(=O)N1CCc2nc(N3CCC(Oc4ccc(F)cc4F)CC3)c(-c3cn[nH]c3)nc2C1 = > 7.00
• COC[C@H]1CN(Cc2ccc(F)cc2F)CCN1c1nc2ccncc2nc1-c1cnn(C)c1 (single isomer, unassigned) = 4.52 to 6.00
• Cn1cc(-c2nc3cnccc3nc2N2CCN(Cc3ccc(F)cc3F)C(=O)C2)cn1 = ≤ 4.52
• COc1ccc(C(=O)N2CCN(c3nc4c(nc3-c3cnn(C)c3)CN(C(C)=O)CC4)CC2)c(F)c1 = 4.52 to 6.00
• CC(=O)N1CCc2nc(N3CCC(Oc4ccc(F)cc4F)CC3)c(-c3cccc(-c4cn[nH]c4)n3)nc2C1 = 6.00 to 7.00
• CC(=O)N1CCc2nc(N3CCC(Oc4ccc(F)cc4F)CC3)c(-c3cnn(-c4ccccc4)c3)nc2C1 = 6.00 to 7.00
• CC(=O)N1CCc2nc(N3CCC(Oc4ccc(F)cc4F)CC3)c(-c3cnn(C4CS(=O)(=O)C4)c3)nc2C1 = 4.52 to 6.00

Now, please, on to the next compound.
Request: Form field: pIC50 recorded for COc1ncc(-c2nc3c(nc2N2CCC(Oc4ccc(F)cc4F)CC2)CCN(C(C)=O)C3)cn1 with GPR6 (Homo sapiens, UniProt P46095) (enter value)
Response: 6.00 to 7.00

The reported measurements were obtained from patent US20260042755A1.
